Hello, the source for this data is patent US8604059B2, in case you need it.

Listing: FIC index of selected compounds
- Test system: E. coli MDR clinical isolates
- TEST NAME: FIC index, synergy with antibiotics (Table 4a)
- Format: cell-based
- RECORDED CONDITIONS: with Gentamycin; 8 MDR E. coli; mean; compound at ¼ of MIC
OBSERVATION TYPE: FIC index

>>> df
                                   compound  observation_type  observed
0  Clc1ccc2c(c1)/C(=C/CCN1CCNCC1)c1ccccc1S2 [Compound 1, N-dealkyl-transclopenthixol]         FIC index      0.47
1  Clc1ccc2c(c1)/C(=C/CCC1CCNCC1)c1ccccc1S2         FIC index      0.44
2  OCCN1CCC(CC/C=C2\c3ccccc3Sc3ccc(Cl)cc32)CC1         FIC index      0.47
3  OCCN1CCN(CC/C=C2\c3ccccc3Sc3ccc(Cl)cc32)CC1 [Compound 2, trans-clopentixol]         FIC index      0.44
